# target of assay: GDP-bound KRAS wild-type protein (Homo sapiens)
# Sequence (P01116 1-188 isoform P01116-2): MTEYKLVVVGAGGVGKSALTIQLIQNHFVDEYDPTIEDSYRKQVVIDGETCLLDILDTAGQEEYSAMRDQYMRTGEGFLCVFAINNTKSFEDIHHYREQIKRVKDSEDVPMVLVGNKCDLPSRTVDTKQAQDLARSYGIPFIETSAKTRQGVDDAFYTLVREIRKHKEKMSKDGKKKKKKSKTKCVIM
# assay remarks: Binding to KRAS by surface plasmon resonance (SPR), dissociation constant KD
# recorded conditions: Single Cycle Kinetics
measurement label: pKd
Reminder that pKd is minus the log10 of a molar concentration.

Problem: Look up pKd: `CCCOC[C@H]1C(=O)N[C@@H](C2CCCC2)C(=O)N(CCC)CC(=O)N(C)[C@H]2C/C=C\CCN(C2=O)[C@@H](Cc2ccc(C(F)F)cc2)C(=O)N(C)CC(=O)N[C@@H](CCc2ccc(C(F)(F)F)c(Cl)c2)C(=O)N2C[C@H](OC(C)C)C[C@H]2C(=O)N(C)C2(CCC2)C(=O)N(C)[C@@H](C(CC)CC)C(=O)N(C)[C@H](C(=O)N(C)C)CC(=O)N1C`
Solution: 8.89

Problem: Next compound: `CCC[C@H]1C(=O)N[C@@H](C2CCCC2)C(=O)N(C)CC(=O)N(C)[C@H]2C/C=C\CCN(C2=O)[C@@H](Cc2ccc(C(F)(F)F)cc2)C(=O)N(C)CC(=O)N[C@@H](CCc2cc(F)c(C(F)(F)F)c(F)c2)C(=O)N2CC3(CC3)C[C@H]2C(=O)N(C)C2(CCC2)C(=O)N(C)[C@@H]([C@@H](C)CC)C(=O)N(C)[C@H](C(=O)N(C)C)CC(=O)N1C`
Solution: 8.62

Problem: Entry to check: `CCC[C@H]1C(=O)N[C@@H]([C@@H](C)CC)C(=O)N(C)CC(=O)N(C)[C@H]2C/C=C\CCN(C2=O)[C@@H](Cc2ccc(C(F)(F)F)cc2)C(=O)N(C)CC(=O)N[C@@H](CCc2cc(F)c(C(F)(F)F)c(F)c2)C(=O)N2CC3(CC3)C[C@H]2C(=O)NC2(CCC2)C(=O)N(C)[C@@H](C(CC)CC)C(=O)N(C)[C@H](C(=O)N(C)C)CC(=O)N1C`
Solution: 9.51

Problem: Now try `CCC[C@H]1C(=O)N[C@@H]([C@@H](C)CC)C(=O)N(C)CC(=O)N(C)[C@H]2C/C=C\CCN(C2=O)[C@@H](Cc2ccc(C(F)(F)F)cc2)C(=O)N(C)CC(=O)N[C@@H](CCc2ccc(C(F)(F)F)c(Cl)c2)C(=O)N2CC3(CC3)C[C@H]2C(=O)N(C)C2(CCC2)C(=O)N(C)[C@@H](C(CC)CC)C(=O)N(C)[C@H](C(=O)N(C)C)CC(=O)N1C` .
Solution: 9.32

Problem: // next record `CCO[C@@H]1C[C@H]2C(=O)NC3(CCCC3)C(=O)N(C)[C@@H](C3CCCC3)C(=O)N(C)[C@H](C(=O)N(C)C)CC(=O)N(C)[C@@H]([C@@H](C)OC)C(=O)N[C@@H]([C@@H](C)CC)C(=O)N(C)CC(=O)N(C)[C@H]3C/C=C\CCN(C3=O)[C@@H](Cc3ccc(C)cc3)C(=O)N(C)CC(=O)N[C@@H](CCc3cc(F)c(C(F)(F)F)c(F)c3)C(=O)N2C1`
Solution: 9.92

We next turn to a different compound, shown below.
Problem: Look up pKd for this compound: `CCC[C@H]1C(=O)N[C@@H]([C@@H](C)CC)C(=O)N2CCC[C@H]2C(=O)N(C)[C@H]2C/C(F)=C\CCN(C2=O)[C@@H](Cc2ccc(C(F)(F)F)cc2)C(=O)N(C)CC(=O)N[C@@H](CCc2ccc(C(F)(F)F)c(OC)c2)C(=O)N2C[C@H](OCC)C[C@H]2C(=O)N(C)C2(CCC2)C(=O)N(C)[C@@H](C2CCCC2)C(=O)N(C)[C@H](C(=O)N(C)C)CC(=O)N1C`
Solution: 9.39
